- Measured on: Delta opioid receptor (DOR)
- Measurement description: cell-based or functional assay
Square brackets hold non-standard residues; d marks the D form. Ends that are not written are not given here. Phe(4-NO2) = N[C@@H](Cc1ccc([N+](=O)[O-])cc1)C(=O)O; Phe(4-Cl) = N[C@@H](Cc1ccc(Cl)cc1)C(=O)O; Api = NC1(C(=O)O)CCNCC1; GABA = NCCCC(=O)O; Sar = CNCC(=O)O
Measurement label: cAMP assay (ALPHAScreen), result at 10 µM peptide

Binder	Experimental value
H-Y[Sar]FLRR-NH2 [SEQ ID NO. 2: NH2-Tyr-Sar-Phe-Leu-Arg-Arg-NH2]	22
H-Y[Sar][Phe(4-Cl)]LR[dR]-NH2 [SEQ ID NO. 11: NH2-Tyr-Sar-(4-Cl)Phe-Leu-Arg-DArg-NH2]	4.27
H-F[Sar][Phe(4-NO2)]L[dR][dR]-NH2 (SMILES CC(C)C[C@H](NC(=O)[C@H](Cc1ccc([N+](=O)[O-])cc1)NC(=O)CN(C)C(=O)[C@@H](N)Cc1ccccc1)C(=O)N[C@H](CCCNC(=N)N)C(=O)N[C@H](CCCNC(=N)N)C(N)=O) [SEQ ID NO. 9: NH2-Phe-Sar-(4-NO2)Phe-Leu-DArg-DArg-NH2]	1.83
H-Y[Sar]FL[dR][dR]-NH2 [SEQ ID NO. 7: NH2-Tyr-Sar-Phe-Leu-DArg-DArg-NH2]	2.53
H-Y[Sar]FLR[dR]-NH2 [SEQ ID NO. 3: NH2-Tyr-Sar-Phe-Leu-Arg-DArg-NH2]	2.24
H-Y[GABA]FLRR-NH2 (SMILES CC(C)C[C@H](NC(=O)[C@H](Cc1ccccc1)NC(=O)CCCNC(=O)[C@@H](N)Cc1ccc(O)cc1)C(=O)N[C@@H](CCCNC(=N)N)C(=O)N[C@@H](CCCNC(=N)N)C(N)=O) [SEQ ID NO. 1: NH2-Tyr-Gaba-Phe-Leu-Arg-Arg-NH2]	19.6
[dF][dF][dL][dK][Api]-OH (N-terminus assumed; SMILES CC(C)C[C@@H](NC(=O)[C@@H](Cc1ccccc1)NC(=O)[C@H](N)Cc1ccccc1)C(=O)N[C@H](CCCCN)C(=O)NC1(C(=O)O)CCNCC1) [CR845 (SEQ ID NO. 35: DPhe-DPhe-DLeu-DLys-Cap-CO2H)]	3.27
